- EXPERIMENT DESCRIPTION: in vivo
- APPLIED CONDITIONS: female, monkey, po, 20 mg/kg
REPORTED ENDPOINT: Cmax (ng/mL)

>>> print(df.to_string())
                                   compound  val
0  COc1cc2c(Nc3ccc(Cl)c(Cl)c3F)ncnc2cc1OC[C@@H]1C[C@@H]2CN(C)C[C@@H]2C1 [XL-647]  202

* * *

- MEASUREMENT TARGET: EphA2 (Homo sapiens)
- Sequence (P29317 24-976): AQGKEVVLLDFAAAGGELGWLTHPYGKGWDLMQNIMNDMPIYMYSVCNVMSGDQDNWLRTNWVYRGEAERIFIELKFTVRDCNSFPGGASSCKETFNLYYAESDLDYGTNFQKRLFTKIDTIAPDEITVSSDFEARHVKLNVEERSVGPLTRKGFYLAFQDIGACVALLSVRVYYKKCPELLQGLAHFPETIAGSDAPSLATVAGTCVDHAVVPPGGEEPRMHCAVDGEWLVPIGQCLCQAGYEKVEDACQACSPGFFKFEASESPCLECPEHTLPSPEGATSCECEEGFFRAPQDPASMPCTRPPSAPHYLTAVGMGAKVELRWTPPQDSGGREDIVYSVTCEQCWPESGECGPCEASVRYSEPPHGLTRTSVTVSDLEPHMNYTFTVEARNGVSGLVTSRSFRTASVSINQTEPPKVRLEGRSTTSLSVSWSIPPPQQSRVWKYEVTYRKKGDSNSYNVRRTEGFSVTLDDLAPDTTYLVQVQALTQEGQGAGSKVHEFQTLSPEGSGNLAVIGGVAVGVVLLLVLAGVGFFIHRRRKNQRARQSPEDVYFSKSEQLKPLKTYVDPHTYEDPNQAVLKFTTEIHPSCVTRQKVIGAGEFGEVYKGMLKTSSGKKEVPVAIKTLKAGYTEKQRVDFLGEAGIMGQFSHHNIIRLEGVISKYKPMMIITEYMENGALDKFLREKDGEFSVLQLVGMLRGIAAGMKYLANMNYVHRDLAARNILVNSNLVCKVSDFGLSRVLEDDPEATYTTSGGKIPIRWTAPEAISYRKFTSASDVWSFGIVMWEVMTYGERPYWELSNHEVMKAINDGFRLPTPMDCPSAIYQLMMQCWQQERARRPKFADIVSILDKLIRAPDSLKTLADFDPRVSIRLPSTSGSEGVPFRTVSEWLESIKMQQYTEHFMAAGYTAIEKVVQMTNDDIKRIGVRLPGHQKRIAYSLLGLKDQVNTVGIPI
- EXPERIMENT DESCRIPTION: EphA2 autophosphorylation ELISA, PC-3 cells
- Assay type: cell-based
- APPLIED CONDITIONS: read-out: Cellular IC50, autophosphorylation
REPORTED ENDPOINT: IC50 (µM)

In [3]: df
Out[3]:
                                        smi  reported_endpoint  unit_abbreviation  val
0  COc1cc2c(Nc3ccc(Cl)c(Cl)c3F)ncnc2cc1OC[C@@H]1C[C@@H]2CN(C)C[C@@H]2C1               IC50                 µM  1.1

* * *

- MEASUREMENT TARGET: MKK7β (Homo sapiens)
- Sequence (O14733 1-419): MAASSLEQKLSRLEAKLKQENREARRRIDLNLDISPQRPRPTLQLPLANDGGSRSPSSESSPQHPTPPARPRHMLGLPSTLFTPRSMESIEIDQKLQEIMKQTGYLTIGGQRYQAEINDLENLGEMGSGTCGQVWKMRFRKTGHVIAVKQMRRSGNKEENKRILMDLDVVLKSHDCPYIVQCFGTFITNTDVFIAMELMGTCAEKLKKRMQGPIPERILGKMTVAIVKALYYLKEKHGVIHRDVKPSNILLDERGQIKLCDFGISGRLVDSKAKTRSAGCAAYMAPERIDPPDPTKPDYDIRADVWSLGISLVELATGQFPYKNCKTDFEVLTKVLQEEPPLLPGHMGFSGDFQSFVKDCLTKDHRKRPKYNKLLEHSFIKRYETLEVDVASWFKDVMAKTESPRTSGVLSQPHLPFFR
REPORTED ENDPOINT: IC50

                                        smi        val
0  COc1cc2c(Nc3ccc(Cl)c(Cl)c3F)ncnc2cc1OC[C@@H]1C[C@@H]2CN(C)C[C@@H]2C1  > 1000 nM

* * *

- EXPERIMENT DESCRIPTION: in vivo
- APPLIED CONDITIONS: female, dog, po, 1000 mg/kg
REPORTED ENDPOINT: AUC(0-t)

                                        smi           val
0  COc1cc2c(Nc3ccc(Cl)c(Cl)c3F)ncnc2cc1OC[C@@H]1C[C@@H]2CN(C)C[C@@H]2C1  34.2 µg·h/mL

* * *

- MEASUREMENT TARGET: wt EGFR (A431) (Homo sapiens, UniProt P00533)
- Sequence (P00533 25-1210): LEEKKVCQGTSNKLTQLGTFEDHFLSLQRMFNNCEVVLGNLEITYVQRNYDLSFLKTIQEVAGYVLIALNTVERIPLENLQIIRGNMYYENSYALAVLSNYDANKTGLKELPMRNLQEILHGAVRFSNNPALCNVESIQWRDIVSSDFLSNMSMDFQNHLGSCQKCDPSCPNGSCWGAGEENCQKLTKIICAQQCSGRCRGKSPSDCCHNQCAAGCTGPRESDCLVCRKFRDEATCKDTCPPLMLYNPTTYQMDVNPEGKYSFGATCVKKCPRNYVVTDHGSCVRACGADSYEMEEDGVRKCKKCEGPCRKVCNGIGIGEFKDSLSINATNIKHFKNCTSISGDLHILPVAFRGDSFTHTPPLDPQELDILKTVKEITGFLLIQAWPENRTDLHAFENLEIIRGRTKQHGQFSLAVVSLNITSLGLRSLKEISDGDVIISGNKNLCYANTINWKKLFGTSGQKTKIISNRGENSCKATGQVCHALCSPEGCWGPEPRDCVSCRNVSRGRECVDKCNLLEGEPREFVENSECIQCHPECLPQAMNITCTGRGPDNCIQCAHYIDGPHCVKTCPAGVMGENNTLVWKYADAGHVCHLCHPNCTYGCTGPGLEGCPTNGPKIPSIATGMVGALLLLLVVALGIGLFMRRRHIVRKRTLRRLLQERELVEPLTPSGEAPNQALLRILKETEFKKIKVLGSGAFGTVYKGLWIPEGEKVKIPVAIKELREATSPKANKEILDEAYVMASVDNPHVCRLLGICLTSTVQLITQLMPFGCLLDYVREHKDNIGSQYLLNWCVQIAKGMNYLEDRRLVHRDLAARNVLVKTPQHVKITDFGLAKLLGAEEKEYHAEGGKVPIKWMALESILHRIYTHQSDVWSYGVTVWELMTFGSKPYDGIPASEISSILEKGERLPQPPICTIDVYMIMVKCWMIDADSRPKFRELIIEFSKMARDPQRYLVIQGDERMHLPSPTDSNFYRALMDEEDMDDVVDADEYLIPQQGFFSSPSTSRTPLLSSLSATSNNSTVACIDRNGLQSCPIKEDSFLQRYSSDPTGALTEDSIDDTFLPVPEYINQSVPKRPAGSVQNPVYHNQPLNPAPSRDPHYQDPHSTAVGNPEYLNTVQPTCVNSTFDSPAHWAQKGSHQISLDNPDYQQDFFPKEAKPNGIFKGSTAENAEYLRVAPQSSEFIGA
- EXPERIMENT DESCRIPTION: Cell-based EGFR autophosphorylation assay in A431 cells
- APPLIED CONDITIONS: read-out: IC50, EGFR phosphorylation
pIC50: −log10 of the molar value.
REPORTED ENDPOINT: pIC50

In [3]: df
Out[3]:
                                   compound   val
0  COc1cc2c(Nc3ccc(Cl)c(Cl)c3F)ncnc2cc1OC[C@@H]1C[C@@H]2CN(C)C[C@@H]2C1 [XL-647]  9.00

* * *

- MEASUREMENT TARGET: SAPK3 (Homo sapiens, UniProt P53778)
REPORTED ENDPOINT: IC50

                                        smi                    measurement_target     val
0  COc1cc2c(Nc3ccc(Cl)c(Cl)c3F)ncnc2cc1OC[C@@H]1C[C@@H]2CN(C)C[C@@H]2C1  SAPK3 (Homo sapiens, UniProt P53778)  > 1 µM

* * *

- MEASUREMENT TARGET: MKK6 (Homo sapiens)
- Sequence (P52564 whole entry, species assumed): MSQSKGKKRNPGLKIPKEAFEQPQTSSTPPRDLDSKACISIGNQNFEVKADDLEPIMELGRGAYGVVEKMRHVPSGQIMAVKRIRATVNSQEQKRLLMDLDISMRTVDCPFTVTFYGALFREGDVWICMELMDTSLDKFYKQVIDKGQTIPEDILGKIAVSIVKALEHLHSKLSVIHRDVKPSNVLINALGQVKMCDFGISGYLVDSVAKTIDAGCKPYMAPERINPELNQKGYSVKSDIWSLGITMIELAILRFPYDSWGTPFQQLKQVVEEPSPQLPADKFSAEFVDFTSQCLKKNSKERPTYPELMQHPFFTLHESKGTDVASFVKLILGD
REPORTED ENDPOINT: IC50

                                        smi   measurement_target  reported_endpoint        val
0  COc1cc2c(Nc3ccc(Cl)c(Cl)c3F)ncnc2cc1OC[C@@H]1C[C@@H]2CN(C)C[C@@H]2C1  MKK6 (Homo sapiens)               IC50  > 1000 nM

* * *

- MEASUREMENT TARGET: UniProtKB P10721
- EXPERIMENT DESCRIPTION: c-Kit autophosphorylation ELISA, transfected HeLa cells
- Format: cell-based
- Parameters: expressed in transfected cells; host or cells: HeLa
- APPLIED CONDITIONS: read-out: Cellular IC50, autophosphorylation
pIC50: −log10 of the molar value.
REPORTED ENDPOINT: pIC50

>>> df
                                        smi  measurement_target   val
0  COc1cc2c(Nc3ccc(Cl)c(Cl)c3F)ncnc2cc1OC[C@@H]1C[C@@H]2CN(C)C[C@@H]2C1    UniProtKB P10721  7.05

* * *

- MEASUREMENT TARGET: CDK6 (Homo sapiens)
- Sequence (Q00534 whole entry, species assumed): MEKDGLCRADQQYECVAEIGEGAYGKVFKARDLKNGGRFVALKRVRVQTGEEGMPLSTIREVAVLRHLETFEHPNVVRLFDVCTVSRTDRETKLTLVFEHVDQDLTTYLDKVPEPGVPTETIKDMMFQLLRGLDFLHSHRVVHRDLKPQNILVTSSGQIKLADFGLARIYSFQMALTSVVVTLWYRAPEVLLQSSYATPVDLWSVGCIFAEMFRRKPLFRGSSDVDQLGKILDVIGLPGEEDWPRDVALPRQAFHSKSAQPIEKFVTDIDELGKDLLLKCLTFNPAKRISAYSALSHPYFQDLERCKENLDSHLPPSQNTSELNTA
- Sequence (P30281 whole entry partner, species assumed): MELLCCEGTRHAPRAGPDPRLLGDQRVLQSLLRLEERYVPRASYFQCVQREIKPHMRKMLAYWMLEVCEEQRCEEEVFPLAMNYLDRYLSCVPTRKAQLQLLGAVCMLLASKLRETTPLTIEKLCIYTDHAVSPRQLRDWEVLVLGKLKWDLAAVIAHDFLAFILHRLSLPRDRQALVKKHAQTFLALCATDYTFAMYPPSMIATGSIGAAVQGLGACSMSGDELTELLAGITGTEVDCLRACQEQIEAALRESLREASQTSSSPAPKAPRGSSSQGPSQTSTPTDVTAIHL
REPORTED ENDPOINT: IC50

>>> df
                                        smi     val
0  COc1cc2c(Nc3ccc(Cl)c(Cl)c3F)ncnc2cc1OC[C@@H]1C[C@@H]2CN(C)C[C@@H]2C1  > 1 µM

* * *

- MEASUREMENT TARGET: KDR (Homo sapiens)
REPORTED ENDPOINT: Ki (nM)

                                   compound  val
0  COc1cc2c(Nc3ccc(Cl)c(Cl)c3F)ncnc2cc1OC[C@@H]1C[C@@H]2CN(C)C[C@@H]2C1 [XL-647]  0.6

* * *

- EXPERIMENT DESCRIPTION: in vivo
- APPLIED CONDITIONS: female, monkey, po, 2 mg/kg
REPORTED ENDPOINT: AUC(0-t)

                                        smi          val
0  COc1cc2c(Nc3ccc(Cl)c(Cl)c3F)ncnc2cc1OC[C@@H]1C[C@@H]2CN(C)C[C@@H]2C1  450 ng·h/mL

* * *

- EXPERIMENT DESCRIPTION: in vivo
- APPLIED CONDITIONS: male, monkey, po, 150 mg/kg
- Procedure: The nonclinical Pharmacokinetics (PK) of XL-647 was studied in mice, rats, dogs, and monkeys. Animals were dosed either once or daily over several days, as described in Table 21 and 22 below. A summary of results can also be found in Tables 21 and 22 below. […] Mean tmax values were approximately 4 to 8 hours, and plasma terminal half-lives ranged from 9.41 to 20.9 hours.
REPORTED ENDPOINT: half-life (h)

>>> print(df.to_string())
                                        smi  reported_endpoint  unit_abbreviation   val
0  COc1cc2c(Nc3ccc(Cl)c(Cl)c3F)ncnc2cc1OC[C@@H]1C[C@@H]2CN(C)C[C@@H]2C1          half-life                  h  19.8

* * *

- MEASUREMENT TARGET: ZAP-70 (Homo sapiens, UniProt P43403)
- Construct: purchased MBL
- Sequence (P43403 whole entry): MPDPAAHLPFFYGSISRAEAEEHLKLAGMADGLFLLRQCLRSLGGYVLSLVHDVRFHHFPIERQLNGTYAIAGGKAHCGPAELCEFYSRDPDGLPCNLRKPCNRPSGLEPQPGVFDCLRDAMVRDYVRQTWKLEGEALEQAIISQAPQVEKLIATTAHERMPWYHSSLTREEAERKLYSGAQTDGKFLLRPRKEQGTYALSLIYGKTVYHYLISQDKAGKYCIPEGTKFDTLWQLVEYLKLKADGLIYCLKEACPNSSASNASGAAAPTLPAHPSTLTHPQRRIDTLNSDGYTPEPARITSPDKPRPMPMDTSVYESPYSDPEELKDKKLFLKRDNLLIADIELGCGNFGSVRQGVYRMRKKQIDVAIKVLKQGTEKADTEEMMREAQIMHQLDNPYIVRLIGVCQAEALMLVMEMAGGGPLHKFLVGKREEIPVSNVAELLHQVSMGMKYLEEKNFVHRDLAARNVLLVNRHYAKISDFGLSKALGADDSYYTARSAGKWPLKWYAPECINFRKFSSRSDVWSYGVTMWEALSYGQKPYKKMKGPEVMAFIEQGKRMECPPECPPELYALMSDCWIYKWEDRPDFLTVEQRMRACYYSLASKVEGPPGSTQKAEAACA
- EXPERIMENT DESCRIPTION: Chemiluminescent kinase assay
- Assay type: biochemical
pIC50: −log10 of the molar value.
REPORTED ENDPOINT: pIC50

In [3]: df
Out[3]:
                                        smi   val
0  COc1cc2c(Nc3ccc(Cl)c(Cl)c3F)ncnc2cc1OC[C@@H]1C[C@@H]2CN(C)C[C@@H]2C1  5.11

* * *

- MEASUREMENT TARGET: PKBα (Homo sapiens)
- Sequence (P31749 whole entry, species assumed): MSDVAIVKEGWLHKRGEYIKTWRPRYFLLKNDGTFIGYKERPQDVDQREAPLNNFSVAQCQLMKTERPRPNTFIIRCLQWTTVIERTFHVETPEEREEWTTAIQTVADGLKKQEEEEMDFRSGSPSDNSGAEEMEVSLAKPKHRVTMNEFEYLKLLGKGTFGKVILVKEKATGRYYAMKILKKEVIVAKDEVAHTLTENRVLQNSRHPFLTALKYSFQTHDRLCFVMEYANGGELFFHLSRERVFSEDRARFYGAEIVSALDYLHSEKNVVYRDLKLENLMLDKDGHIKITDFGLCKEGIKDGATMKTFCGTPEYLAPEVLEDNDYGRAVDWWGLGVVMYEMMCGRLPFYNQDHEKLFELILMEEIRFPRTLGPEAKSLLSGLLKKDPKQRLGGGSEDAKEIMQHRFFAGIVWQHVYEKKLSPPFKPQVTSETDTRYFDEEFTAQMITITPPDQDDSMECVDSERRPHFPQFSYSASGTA
pIC50: −log10 of the molar value.
REPORTED ENDPOINT: pIC50

>>> print(df.to_string())
                                        smi     val
0  COc1cc2c(Nc3ccc(Cl)c(Cl)c3F)ncnc2cc1OC[C@@H]1C[C@@H]2CN(C)C[C@@H]2C1  < 5.00

* * *

- MEASUREMENT TARGET: Flt-4 (Homo sapiens, UniProt P35916)
- Sequence (P35916 725-1298 isoform P35916-1): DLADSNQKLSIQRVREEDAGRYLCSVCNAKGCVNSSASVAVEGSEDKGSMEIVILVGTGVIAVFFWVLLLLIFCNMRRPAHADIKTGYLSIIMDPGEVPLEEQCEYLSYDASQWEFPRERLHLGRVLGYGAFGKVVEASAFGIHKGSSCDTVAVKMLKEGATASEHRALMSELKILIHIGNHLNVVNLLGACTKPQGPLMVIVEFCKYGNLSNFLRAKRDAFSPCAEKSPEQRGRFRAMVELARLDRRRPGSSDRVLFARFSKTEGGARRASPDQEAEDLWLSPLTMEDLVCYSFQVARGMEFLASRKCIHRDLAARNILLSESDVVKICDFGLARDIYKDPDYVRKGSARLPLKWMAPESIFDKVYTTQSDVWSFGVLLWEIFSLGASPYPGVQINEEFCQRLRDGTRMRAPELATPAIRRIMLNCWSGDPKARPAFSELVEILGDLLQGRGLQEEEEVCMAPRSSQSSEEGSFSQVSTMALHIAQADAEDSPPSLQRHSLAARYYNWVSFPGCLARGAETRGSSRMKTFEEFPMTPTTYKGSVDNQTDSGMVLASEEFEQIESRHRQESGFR
- EXPERIMENT DESCRIPTION: AlphaScreen tyrosine kinase assay
- Format: biochemical
- Set-up: residues D725-R1298 of human Flt-4, Proqinase; purchased Proqinase
- APPLIED CONDITIONS: ATP at Km
REPORTED ENDPOINT: IC50 (nM)

                                        smi                    measurement_target  reported_endpoint  val
0  COc1cc2c(Nc3ccc(Cl)c(Cl)c3F)ncnc2cc1OC[C@@H]1C[C@@H]2CN(C)C[C@@H]2C1  Flt-4 (Homo sapiens, UniProt P35916)               IC50  8.7

Attribution: patent US9364479B2
